# Measurement Protocol: chemical genetic growth profiling, strain panel (AID 1159580);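 also: tested at 20 µM; growth read once vehicle control cultures reached saturation at 30 °C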
# Test Settings: S. cerevisiae deletion strains, growth OD, locus YER133W, strain GLC7, stronger effect = lower value
The whole screen tested about 5,500 compounds, of which about 2,000 (36%) were called active. About 18% were inconclusive and are not listed. Some of the results follow.
Binary call on normalized growth with cut-off 0.9: strictly below means TRUE, and equality or higher means FALSE.

INSERT INTO results (compound, label) VALUES
  ('COCCOc1ccccc1NC(=S)SCCSC(=S)Nc1ccccc1OCCOC', 'FALSE'),
  ('CSc1c(C#N)c(-c2ccc(Cl)cc2)nn1C(=O)c1ccccc1Cl', 'FALSE'),
  ('CC(C)(O)C#Cc1ccc(/C=N\Nc2c(Cl)cc(Cl)cc2Cl)cc1', 'TRUE'),
  ('O=C(Nc1ccccn1)c1cc(-c2ccccc2)c(C(F)(F)F)s1', 'FALSE'),
  ('CCCCCCCC1CCC/C1=N/OC(=O)c1cccs1 (stereo unspecified)', 'FALSE'),
  ('CCc1cc2c(cc1-c1csc(C/C(N)=N\O)n1)C(C)(C)CCC2(C)C', 'TRUE'),
  ('CCOC(=O)NC(=S)NC12CC3CC(CC(C3)C1)C2', 'TRUE'),
  ('CC(=O)C(Sc1nc2ccccc2s1)C(C)=O', 'TRUE');
